Every entry's value here was drawn from the supplement of paper PMC10567573.

Entries and their measured protein stability index follow.
B1: ZNF263 (parent)
chain: EKPYKCPECGEIFAHSSNLLRHQR

Variants of: B1
protocol-details: protein stability index of a GFP-peptide fusion (GPS, HEK-293T) (PSI 1-6); higher = more stable;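 also: lentivirally expressed fusions sorted by FACS into six bins by GFP to DsRed ratio, PSI derived from sequencing read proportions per bin multiplied by bin number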
settings: c terminus: a fixed tail appended

- variant-annotation: "S17T"
  protein stability index: 2.06
- variant-annotation: "G10K"
  protein stability index: 2.31
- variant-annotation: "R24S"
  protein stability index: 4.47
- variant-annotation: "E1T"
  protein stability index: 2.65
- variant-annotation: "E11W"
  protein stability index: 2.42
- variant-annotation: "C6R"
  protein stability index: 3.08
- variant-annotation: "A14Y"
  protein stability index: 2.79
- variant-annotation: "K5Q"
  protein stability index: 3.12
- variant-annotation: "S16Y"
  protein stability index: 3.26
- variant-annotation: "C9N"
  protein stability index: 3.48
- variant-annotation: "S16C"
  protein stability index: 2.73
- variant-annotation: "S17R"
  protein stability index: 2.42
- variant-annotation: "G10V"
  protein stability index: 1.78
